Reported normalized RNA/DNA level with ligand (log10) by item:
B1: library; a variant is named by its letters at N, in order (parent)
chain: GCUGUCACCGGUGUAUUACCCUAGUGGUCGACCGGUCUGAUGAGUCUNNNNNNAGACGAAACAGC

variants of: B1; experiment: normalized RNA/DNA level with ligand (relative to sTRSVctl = 100) (log10 (% of sTRSVctl)); ligand: hypoxanthine (xanthine aptamer); higher = less ribozyme self-cleavage, higher mRNA level; conditions: ligand concentration (+) RNA-Seq: 5 mM, HEK293T, reporter: mCherry (pCS4076), ligand present: yes
Simply state the number, no unit and no words.

VAR	QUANTITATIVE READOUT
GAUCGG	1.91

Find the measured normalized RNA/DNA level with ligand (log10) of CCCUUA and report it. 2

Find the measured normalized RNA/DNA level with ligand (log10) of AUGAGA and report it. 1.85

Find the measured normalized RNA/DNA level with ligand (log10) of UCAGCA and report it. 1.99
